# assayed system: human mGluR4 (Homo sapiens, UniProt Q14833)
# Sequence (Q14833 33-912): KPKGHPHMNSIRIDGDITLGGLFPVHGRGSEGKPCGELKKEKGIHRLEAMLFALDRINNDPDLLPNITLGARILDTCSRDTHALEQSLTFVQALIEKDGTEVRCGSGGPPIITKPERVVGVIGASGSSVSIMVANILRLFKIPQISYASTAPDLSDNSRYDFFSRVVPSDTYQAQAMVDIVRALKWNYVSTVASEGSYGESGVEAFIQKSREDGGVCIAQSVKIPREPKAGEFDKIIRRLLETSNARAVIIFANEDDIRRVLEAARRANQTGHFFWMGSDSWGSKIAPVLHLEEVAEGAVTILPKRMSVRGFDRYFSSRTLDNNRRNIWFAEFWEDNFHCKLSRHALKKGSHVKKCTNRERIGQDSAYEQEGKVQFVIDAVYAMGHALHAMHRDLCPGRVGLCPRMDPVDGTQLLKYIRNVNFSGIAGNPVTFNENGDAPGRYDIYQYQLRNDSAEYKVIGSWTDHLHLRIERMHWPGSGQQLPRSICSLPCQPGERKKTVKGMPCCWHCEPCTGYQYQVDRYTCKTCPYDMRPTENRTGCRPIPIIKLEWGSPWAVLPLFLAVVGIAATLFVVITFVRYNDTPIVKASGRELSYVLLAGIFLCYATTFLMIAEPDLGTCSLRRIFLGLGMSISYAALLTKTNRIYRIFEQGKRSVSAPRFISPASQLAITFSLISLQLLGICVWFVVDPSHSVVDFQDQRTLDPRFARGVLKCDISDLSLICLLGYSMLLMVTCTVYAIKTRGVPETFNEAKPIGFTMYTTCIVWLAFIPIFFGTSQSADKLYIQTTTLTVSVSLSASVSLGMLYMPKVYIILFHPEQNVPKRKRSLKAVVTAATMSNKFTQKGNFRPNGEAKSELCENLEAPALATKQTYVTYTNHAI
# measurement description: potentiation of human mGluR4 in transfected CHO cells, Ca2+-sensitive dye fluorescence, EC20 agonist
# test context: hEC50, human mGluR4 potentiation; unit inferred
readout kind: EC50 (nM)

INSERT INTO measurements (molecule, val) VALUES
  ('Cn1ccc(S(=O)(=O)n2ccc(NC(=O)c3ccccn3)c2)n1 [Example 159]', 931),
  ('O=C(Nc1ccn(S(=O)(=O)c2ccc(Cl)c(F)c2)c1)c1ccccn1 [Example 103]', 389),
  ('N#Cc1ccc(S(=O)(=O)n2ccc(NC(=O)c3ccccn3)c2)cc1 [Example 130]', 220),
  ('Cc1ccc(S(=O)(=O)n2ccc(NC(=O)c3ccccn3)c2)cc1C [Example 82]', 139),
  ('COc1ccc(S(=O)(=O)n2ccc(NC(=O)c3ccccn3)c2)cc1 [Example 129]', 107);
